Biological target: Aldo-keto reductase family 1 member C1 (Homo sapiens)
Experiment: Inhibition of human recombinant AKR1C1 assessed as 1-acenaphthenol oxidation at 400 uM by spectrophotometry
reported.endpoint: inhibition (%)
Numbers only; they are read as %.

Known results for molecules:
[[record]]
molecule = "Cc1ccc(S(=O)(=O)Nc2cccc(C(=O)O)c2)cc1"
experimental_value = 43.1

[[record]]
molecule = "Cc1cc(Nc2cc(C(=O)O)ccc2C)nc(C)n1"
experimental_value = 39.5

[[record]]
molecule = "O=C(O)c1cc(NC(=O)c2ccccc2F)ccc1O"
experimental_value = 30.1

[[record]]
molecule = "O=C(O)c1cccc(NCC(=O)c2ccccc2)c1"
experimental_value = 44.8

[[record]]
molecule = "Cc1ccc(NC(=O)c2cccnc2)c(C(=O)O)c1"
experimental_value = 47.4


Please give the measured inhibition for this molecule: NC(=O)c1ccccc1NC(=O)c1ccncc1 22.5

What do we get for O=C1CCC2(c3ccccc3)Nc3ccccc3N12 (centres undefined) ? 43.5
